Reference for the values: patent US10336701B2

- Target Or System: EP3 receptor (Homo sapiens)
- Sequence (P43115 whole entry): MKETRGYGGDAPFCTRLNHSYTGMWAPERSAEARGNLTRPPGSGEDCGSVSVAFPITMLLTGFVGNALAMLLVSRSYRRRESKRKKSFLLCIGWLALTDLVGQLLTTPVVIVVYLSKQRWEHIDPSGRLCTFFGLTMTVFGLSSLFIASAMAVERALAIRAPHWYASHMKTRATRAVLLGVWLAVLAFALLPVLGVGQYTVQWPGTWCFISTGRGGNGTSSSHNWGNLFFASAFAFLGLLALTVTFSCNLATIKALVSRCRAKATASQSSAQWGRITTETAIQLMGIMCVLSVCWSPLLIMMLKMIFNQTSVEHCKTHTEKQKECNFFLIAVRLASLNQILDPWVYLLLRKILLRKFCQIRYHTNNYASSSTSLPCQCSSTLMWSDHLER
- Experimental Protocol: CHO cell cAMP assay (forskolin and sulprostone stimulated, HTRF)
- Condition Info: CHO cells; sulprostone 700 nM (EC80) and FSK 2 μM (EC70), 37° C. for 30 minutes; read-out: CHO_cAMP IC50
pIC50: −log10 of the molar value.
Observable: pIC50

Known results for compounds:
CCn1ncc2c(F)cc(-c3ccc(C(CC)(CC)c4ncco4)c(=O)[nH]3)cc21 [Compound #30]
7.92
CC(C)C(Cc1ccc(-c2ccc3cccc(F)c3c2)[nH]c1=O)C(N)=O (centres unmarked) [compound 253]
7.23
CC(C)C1(c2ccc(-c3ccc4cccc(F)c4c3)[nH]c2=O)N=C(NC#N)NC1=O (centres unmarked) [compound 236]
8.22
CC(C)C1(c2ccc(-c3ccc4cccc(F)c4c3)[nH]c2=O)NC(=S)NC1=O (centres unmarked) [compound 294]
7.25
CCn1cc2c(C)cc(-c3ccc(C(CC4OC(=O)NC4=O)C(C)C)c(=O)[nH]3)cc2n1 (centres unmarked) [compound 86]
6.04

1 = CC1(c2ccc(-c3ccc4ccccc4c3)[nH]c2=O)CN/C(=N\O)N1 (centres unmarked) [compound 288]
2 = CC(C)C(C)(C(N)=O)c1ccc(-c2ccc3ccccc3c2)[nH]c1=O (centres unmarked) [compound 232]
Query: Look at 1 and 2 . Which one has the lower recorded pIC50 number? Please reply using the label of the selected record.
Result: 2

====

- Target Or System: EP3 receptor (Homo sapiens)
- Experimental Protocol: CHO cell cAMP assay (forskolin and sulprostone stimulated, HTRF)
- Condition Info: CHO cells; sulprostone 700 nM (EC80) and FSK 2 μM (EC70), 37° C. for 30 minutes; read-out: CHO_cAMP IC50
Observable: IC50 (nM)

Known results for compounds:
Cc1cc(C(CC2OC(=O)NC2=O)C(C)C)c(=O)[nH]c1-c1ccc2cccc(F)c2c1 (centres unmarked) [Compound #112]
212
CONC1=NC(c2ccc(-c3ccc4cccc(F)c4c3)[nH]c2=O)(C(C)C)CN1 (centres unmarked) [compound 292]
6
CC(C)C(C(=O)NCCN(C)C)c1ccc(-c2ccc3cc(F)ccc3c2)[nH]c1=O (centres unmarked) [compound 242]
3960
CO/N=C1\NCC(c2cc(C)c(-c3ccc4cccc(F)c4c3)[nH]c2=O)(C(C)C)N1 (centres unmarked) [compound 293]
207
O=C1NC(=O)/C(=C/C(c2ccc(-c3ccc4cccc(F)c4c3)[nH]c2=O)C2CC2)O1 (centres unmarked) [compound 103]
33
CCn1ncc2c(F)cc(-c3ccc(C(/C=C4\CCNC4=O)(CC)CC)c(=O)[nH]3)cc21 [compound 16]
17

A = CCn1ncc2c(F)cc(-c3ccc(C(/C=C4\CCNC4=O)(CC)CC)c(=O)[nH]3)cc21 [compound 13]
B = CCn1ncc2c(F)cc(-c3ccc(C4(O)CN(S(=O)(=O)C(C)C)C4)c(=O)[nH]3)cc21 [compound 298]
Query: Look at A and B . Which one has the lower recorded IC50 number? Please reply using the label of the selected record.
Result: A
(A: 22 nM, B: 8300 nM)

====

- Target Or System: EP3 receptor (Homo sapiens)
- Experimental Protocol: CHO cell cAMP assay (forskolin and sulprostone stimulated, HTRF)
- Condition Info: CHO cells; sulprostone 700 nM (EC80) and FSK 2 μM (EC70), 37° C. for 30 minutes; read-out: CHO_cAMP IC50
pIC50: −log10 of the molar value.
Observable: pIC50

Known results for molecules:
CC(C)C(C(=O)NS(C)(=O)=O)c1ccc(-c2ccc3ccccc3c2)[nH]c1=O (centres unmarked) [compound 221]
6.61
CC(C)C(CC(=O)NCCO)c1ccc(-c2ccc3cccc(F)c3c2)[nH]c1=O (centres unmarked) [compound 258]
6.87
O=C1NC(=O)/C(=C/C(c2ccc(-c3ccc4cccc(F)c4c3)[nH]c2=O)C2CCCC2)O1 (centres unmarked) [compound 92]
8.15
CCn1ncc2c(F)cc(-c3ccc(C(CC)(CC)c4ccon4)c(=O)[nH]3)cc21 [Compound #29]
8.05

P = CC(C)C(F)(C(=O)NS(C)(=O)=O)c1ccc(-c2ccc3ccccc3c2)[nH]c1=O (centres unmarked) [compound 224]
Q = O=c1[nH]c(-c2ccc3ccccc3c2)ccc1C1CCOCC1 [compound 192]
R = CC(C)C(NC(N)=O)c1ccc(-c2ccc3cccc(F)c3c2)[nH]c1=O (centres unmarked) [compound 267]
Query: List by increasing pIC50. // respond by listing labels in the order requested
Result: P, Q, R
(P: 4.97, Q: 5.88, R: 7.85)
